Dear all, this message contains IC50 results, target or system Epidermal growth factor receptor (Homo sapiens, UniProt P00533).
Express your answer in µM, writing the number without its unit.

[
  {
    "Test smiles": "C=CC(=O)Nc1cccc(Nc2nc(Nc3ccc(Cn4ccnc4)cc3)ncc2F)c1",
    "Readout kind": "IC50",
    "Quantitative result": 0.987
  }
]

Q. Record lookup: for Epidermal growth factor receptor (Homo sapiens, UniProt P00533), what IC50 belongs to C=CC(=O)Nc1cccc(Nc2nc(Nc3ccc(Cn4ccnc4)cc3)ncc2Cl)c1 ?
A. 1

Q. Record lookup: for Epidermal growth factor receptor (Homo sapiens, UniProt P00533), what IC50 belongs to C=CC(=O)Nc1cccc(Nc2nc(Nc3ccc(Cn4ccnc4)cc3OC)ncc2Cl)c1 ?
A. 0.506

----------
Catalogue of IC50 readings, one per entry.
Method summary: Antiproliferative activity against NHBE cells after 48 hrs by MTT assay
Assay type: ADME, cell-based
Test conditions: Homo sapiens

Field: example entries. Status: answers known.
[
  {
    "Test smiles": "C=CC(=O)Nc1cccc(Nc2nc(Nc3ccc(Cn4ccnc4)cc3)ncc2Cl)c1",
    "IC50": "> 40 µM"
  },
  {
    "Test smiles": "C=CC(=O)Nc1cccc(Nc2nc(Nc3ccc(N4CCN(C(C)=O)CC4)cc3OC)ncc2C(F)(F)F)c1",
    "IC50": "> 40 µM"
  },
  {
    "Test smiles": "C=CC(=O)Nc1cccc(Nc2nc(Nc3ccc(NC(=O)Cn4ccnc4)cc3)ncc2[N+](=O)[O-])c1",
    "IC50": "> 40 µM"
  },
  {
    "Test smiles": "C=CC(=O)Nc1cccc(Nc2nc(Nc3ccc(OCCCn4ccnc4)cc3)ncc2[N+](=O)[O-])c1",
    "IC50": "39.2 µM"
  }
]

Q. Can you share its IC50? I mean this molecule: C=CC(=O)Nc1cccc(Nc2nc(Nc3ccc(OCCn4cncn4)cc3)ncc2Cl)c1
A. > 40 µM

Q. Can you share its IC50? I mean this molecule: C=CC(=O)Nc1cccc(Nc2nc(Nc3ccc(OCCn4ccnc4)cc3)ncc2F)c1
A. 40 µM

Q. Can you share its IC50? I mean this molecule: C=CC(=O)Nc1cccc(Nc2nc(Nc3ccc(Cn4ccnc4)cc3)ncc2F)c1
A. > 40 µM

Q. Can you share its IC50? I mean this molecule: C=CC(=O)Nc1cccc(Nc2nc(Nc3ccc(-n4ccnc4)cc3)ncc2[N+](=O)[O-])c1
A. > 40 µM

Q. Can you share its IC50? I mean this molecule: C=CC(=O)Nc1cccc(Nc2nc(Nc3ccc(Cn4ccnc4)cc3OC)ncc2Cl)c1
A. > 40 µM

Q. Can you share its IC50? I mean this molecule: C=CC(=O)Nc1cccc(Nc2nc(Nc3ccc(OCCn4ccnc4)cc3)ncc2Cl)c1
A. 39.1 µM

----------
Target under test: Epidermal growth factor receptor (Homo sapiens, UniProt P00533, L858R/T790M)
Sequence (P00533 25-1210 T790M/L858R limits assumed): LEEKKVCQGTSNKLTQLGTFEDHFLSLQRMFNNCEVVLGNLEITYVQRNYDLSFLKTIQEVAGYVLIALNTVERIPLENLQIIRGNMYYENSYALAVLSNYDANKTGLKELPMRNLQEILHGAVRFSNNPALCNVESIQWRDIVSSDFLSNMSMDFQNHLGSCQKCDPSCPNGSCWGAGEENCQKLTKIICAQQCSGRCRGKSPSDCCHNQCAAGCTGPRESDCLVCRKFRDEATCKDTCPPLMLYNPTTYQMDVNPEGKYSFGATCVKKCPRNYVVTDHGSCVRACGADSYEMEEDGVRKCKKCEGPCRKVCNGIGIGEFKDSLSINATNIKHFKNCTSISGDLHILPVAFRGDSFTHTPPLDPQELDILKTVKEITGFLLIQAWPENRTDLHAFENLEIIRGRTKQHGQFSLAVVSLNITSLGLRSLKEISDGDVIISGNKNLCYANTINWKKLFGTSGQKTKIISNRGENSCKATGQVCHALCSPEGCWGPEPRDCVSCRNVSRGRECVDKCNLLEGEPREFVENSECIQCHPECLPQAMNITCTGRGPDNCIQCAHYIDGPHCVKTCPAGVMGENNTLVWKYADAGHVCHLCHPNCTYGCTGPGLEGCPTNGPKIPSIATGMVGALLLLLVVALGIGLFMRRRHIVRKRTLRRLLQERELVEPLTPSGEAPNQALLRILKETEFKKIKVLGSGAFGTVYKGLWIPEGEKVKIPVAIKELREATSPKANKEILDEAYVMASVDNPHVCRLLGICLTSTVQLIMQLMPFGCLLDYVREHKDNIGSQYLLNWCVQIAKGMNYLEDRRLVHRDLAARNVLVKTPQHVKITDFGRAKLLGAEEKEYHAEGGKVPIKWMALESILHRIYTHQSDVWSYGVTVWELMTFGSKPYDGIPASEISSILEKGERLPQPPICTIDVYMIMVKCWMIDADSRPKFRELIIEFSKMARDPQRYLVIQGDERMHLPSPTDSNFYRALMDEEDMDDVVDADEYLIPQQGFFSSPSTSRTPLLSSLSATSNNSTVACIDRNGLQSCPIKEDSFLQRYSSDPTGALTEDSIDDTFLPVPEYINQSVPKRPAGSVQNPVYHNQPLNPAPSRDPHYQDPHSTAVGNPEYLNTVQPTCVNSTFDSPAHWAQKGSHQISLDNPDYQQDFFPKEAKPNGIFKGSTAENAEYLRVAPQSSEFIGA
Method summary: biochemical
Catalogue of IC50 readings, one per entry.
Express your answer in nM, writing the number without its unit.

Field: example entries. Status: answers known.
[
  {
    "Test smiles": "C=CC(=O)Nc1cccc(Nc2nc(Nc3ccc(Cn4ccnc4)cc3)ncc2F)c1",
    "IC50 / nM": 9
  },
  {
    "Test smiles": "C=CC(=O)Nc1cccc(Nc2nc(Nc3ccc(-n4ccnc4)cc3)ncc2[N+](=O)[O-])c1",
    "IC50 / nM": 98.2
  },
  {
    "Test smiles": "C=CC(=O)Nc1cccc(Nc2nc(Nc3ccc(OCCn4ccnc4)cc3)ncc2Cl)c1",
    "IC50 / nM": 106
  },
  {
    "Test smiles": "C=CC(=O)Nc1cccc(Nc2nc(Nc3ccc(OCCn4ccnc4)cc3)ncc2F)c1",
    "IC50 / nM": 9.1
  }
]

Q. Can you share its IC50? I mean this molecule: C=CC(=O)Nc1cccc(Nc2nc(Nc3ccc(OCCn4cncn4)cc3)ncc2Cl)c1
A. 103

Q. Can you share its IC50? I mean this molecule: C=CC(=O)Nc1cccc(Nc2nc(Nc3ccc(Cn4ccnc4)cc3OC)ncc2Cl)c1
A. 109

Q. Can you share its IC50? I mean this molecule: C=CC(=O)Nc1cccc(Nc2nc(Nc3ccc(Cn4ccnc4)cc3)ncc2Cl)c1
A. 3.3
